Recorded values, source a collection of fitness landscapes (doi:10.1126/science.1257360).

B1: PhoQ; a variant is named by its letters at X, in order, P23837 (parent)
chain: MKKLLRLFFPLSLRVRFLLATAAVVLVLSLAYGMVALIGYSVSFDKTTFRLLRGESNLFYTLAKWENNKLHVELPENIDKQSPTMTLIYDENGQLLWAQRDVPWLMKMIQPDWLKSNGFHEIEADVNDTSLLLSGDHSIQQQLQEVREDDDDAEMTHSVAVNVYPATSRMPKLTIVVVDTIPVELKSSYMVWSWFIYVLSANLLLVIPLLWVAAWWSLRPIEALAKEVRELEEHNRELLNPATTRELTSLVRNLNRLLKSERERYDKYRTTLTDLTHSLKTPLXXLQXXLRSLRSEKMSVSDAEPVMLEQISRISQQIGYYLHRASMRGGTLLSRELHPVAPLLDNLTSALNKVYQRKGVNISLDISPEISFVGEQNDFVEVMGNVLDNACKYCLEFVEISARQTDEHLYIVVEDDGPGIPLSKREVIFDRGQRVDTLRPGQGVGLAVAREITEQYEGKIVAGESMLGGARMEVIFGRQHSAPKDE

variants of: B1; experiment: enrichment ratio after two sorts for PhoP signalling (ratio (wild type AVST 3.29)); higher = more functional; conditions: with PhoP (E. coli)
The full ranking holds about 140,000 sequences; the median of “enrichment ratio after two sorts for PhoP signalling” is about 0, and the highest 2% start at about 11. This excerpt belongs to a sample that is enriched for the highest values.
experimental.readout: enrichment ratio

Below: 5 variants and their reported enrichment ratio.
[
  {
    "mutant": "CSTS",
    "enrichment ratio": "≤ 0.25"
  },
  {
    "mutant": "LTCL",
    "enrichment ratio": "≤ 0.25"
  },
  {
    "mutant": "RQLT",
    "enrichment ratio": "≤ 0.25"
  },
  {
    "mutant": "MMRL",
    "enrichment ratio": "≤ 0.25"
  },
  {
    "mutant": "YTTS",
    "enrichment ratio": "≤ 0.25"
  }
]

// field: enrichment ratio; key: PMYL ; value = ≤ 0.25

// field: enrichment ratio; key: ITCL ; value = ≤ 0.25
